tested.system: human P2X7 receptor (Homo sapiens (Human), UniProt Q99572, R270H)
Sequence (Q99572 whole entry R270H): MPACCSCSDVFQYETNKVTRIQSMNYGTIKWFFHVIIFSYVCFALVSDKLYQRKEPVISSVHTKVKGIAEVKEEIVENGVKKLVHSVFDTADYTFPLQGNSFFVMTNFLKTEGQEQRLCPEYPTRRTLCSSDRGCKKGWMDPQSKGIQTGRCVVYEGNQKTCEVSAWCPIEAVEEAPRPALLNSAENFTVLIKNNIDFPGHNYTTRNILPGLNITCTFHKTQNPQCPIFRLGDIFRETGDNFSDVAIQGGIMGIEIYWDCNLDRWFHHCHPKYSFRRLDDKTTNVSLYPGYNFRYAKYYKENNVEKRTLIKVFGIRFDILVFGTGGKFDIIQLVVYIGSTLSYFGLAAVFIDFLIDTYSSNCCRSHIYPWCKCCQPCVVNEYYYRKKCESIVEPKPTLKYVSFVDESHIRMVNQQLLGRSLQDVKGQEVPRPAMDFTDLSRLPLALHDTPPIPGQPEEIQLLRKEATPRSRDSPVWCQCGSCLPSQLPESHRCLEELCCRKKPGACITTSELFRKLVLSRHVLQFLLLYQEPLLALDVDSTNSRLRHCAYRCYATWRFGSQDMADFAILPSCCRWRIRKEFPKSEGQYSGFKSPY
procedure.summary: Evaluation of a human P2X7 receptor inhibitory activity (Yo-Pro uptake, BzATP stimulation, FLIPR TETRA)
Assay type: cell-based
assay.conditions: 1321N1 cells stably expressing human P2X7 receptor, Yo-Pro fluorescence, class symbols
measured.parameter: IC50

*Q* Tell me measured IC50 for COc1ccc(Nc2nc(=O)cc3n2C(c2ccccc2)CC3)cc1OC (stereo not shown) please.
*A* < 10 nM

*Q* Item COc1ccc(Nc2nc(=O)c(F)c3n2C(c2cc(F)c(F)c(F)c2)CN3)c(C)n1 (stereo not shown) : provide IC50
*A* 10 to 100 nM

*Q* Dear colleague, please send me the reported IC50 for CCN1C(=O)N=C(Nc2cc(C)c(C)cc2C)N2C1=NCC2c1ccccc1 (stereo not shown) when you can.
*A* < 10 nM

*Q* Name the recorded IC50 of the item COc1cc(Nc2nc(=O)cc3n2C(c2ccccc2)CC3)c(C)cc1F (stereo not shown) in your answer.
*A* < 10 nM

*Q* State its IC50: COCC(F)(F)Oc1ccc(C)c(NC2=NC(=O)N(C)C3=NCC(c4cc(F)c(F)c(F)c4)N23)c1 (stereo not shown)
*A* 10 to 100 nM

*Q* Retrieve IC50 measured for COc1ccc(Nc2nc(=O)cc3n2C(c2ccccc2)CC3)c(C)c1 (stereo not shown) and print it.
*A* < 10 nM

*Q* Report measured IC50; entry is Cc1nc2cc(C)c(/N=c3\[nH]c(=O)cc4n3C(c3cc(F)cc(F)c3)CC4)cc2s1 (stereo not shown)
*A* 10 to 100 nM

*Q* Give the reported IC50 for this compound. COc1ccc(C)c(NC2=NC(=O)N(C)C3=NCC(c4ccc(F)c(F)c4)N23)c1 (stereo not shown)
*A* 10 to 100 nM

*Q* State its IC50: COc1cc(C)c(Nc2nc(=O)c(OC)c3n2C(c2ccccc2)CC3)cc1C (stereo not shown)
*A* 10 to 100 nM

*Q* Write down IC50 measured for item Cc1nc2cc(C)c(NC3=NC(=O)N(C)C4=NCC(c5cc(F)c(F)c(F)c5)N34)cc2s1 (stereo not shown)
*A* 10 to 100 nM

*Q* Answer with reported IC50 of COc1cc(Nc2nc(=O)cc3n2C(c2ccccc2)CC3)c(C)cn1 (stereo not shown)
*A* 100 to 500 nM

*Q* Please give the documented IC50 of Cc1cc(OC(F)F)ccc1Nc1nc(=O)cc2n1C(c1ccc(F)cc1)CC2 (stereo not shown)
*A* < 10 nM

*Q* Return reported IC50. Input compound: COc1ccc(C)c(NC2=NC(=O)N(C)C3=NCC(c4cc(F)c(F)c(F)c4)N23)c1 (stereo not shown)
*A* 10 to 100 nM

*Q* Look up and report measured IC50 for this entry: Cc1ccc(CO)cc1NC1=NC(=O)NC2=NCC(c3cc(F)c(F)c(F)c3)N21 (stereo not shown)
*A* 10 to 100 nM

*Q* Give the reported value of IC50 for this record: CN1C(=O)N=C(Nc2cc(C3CC3)nn2C)N2C1=NCC2c1ccc(F)cc1 (stereo not shown)
*A* 500 to 1000 nM

*Q* In one line, give reported IC50 of the entry CN1C(=O)N=C(NCc2ccc(F)cc2)N2C1=NCC2c1cc(F)c(F)c(F)c1 (stereo not shown) .
*A* 10 to 100 nM

---

Consider the following compounds; for each one, report its pIC50.
tested.system: human P2X7 receptor (Homo sapiens (Human), UniProt Q99572, R270H)
procedure.summary: Evaluation of a human P2X7 receptor inhibitory activity (Yo-Pro uptake, BzATP stimulation, FLIPR TETRA)
Format: cell-based
assay.conditions: 1321N1 cells stably expressing human P2X7 receptor, Yo-Pro fluorescence, class symbols
pIC50: −log10 of the molar value.

*Q* Report pIC50, nothing else, for this compound: Cc1ccc(C#N)cc1NC1=NC(=O)N(C)C2=NCC(c3cc(F)c(F)c(F)c3)N12 (stereo not shown)
*A* 7.00 to 8.00

*Q* For the compound COc1ccc(NC2=NC(=O)N(C)C3=NCC(c4cc(F)c(F)c(F)c4)N23)c(C)c1 (stereo not shown) , give its measured pIC50 value.
*A* 7.00 to 8.00

*Q* Recall and state the measured pIC50 for Cc1cc(OC(F)F)c(C)cc1/N=c1\[nH]c(=O)cc2n1C(c1ccccc1)CC2 (stereo not shown) .
*A* > 8.00

*Q* Give the reported pIC50 for this compound. COc1ccc(C)c(Nc2nc(=O)cc3n2C(c2ccccc2)CC3)c1 (stereo not shown)
*A* 7.00 to 8.00

*Q* Return pIC50 (reported value) for this compound: Cc1ccc(CO)cc1NC1=NC(=O)N(C)C2=NCC(c3cc(F)nc(F)c3)N12 (stereo not shown)
*A* 7.00 to 8.00

*Q* Please give the documented pIC50 of Cc1ccc(NC2=NC(=O)N(C)C3=NCC(c4ccc(F)c(F)c4)N23)c(C)n1 (stereo not shown)
*A* 6.30 to 7.00

*Q* // Input: CCOc1ccc(NC2=NC(=O)N(C)C3=NCC(c4cc(F)c(F)c(F)c4)N23)c(CC)n1 (stereo not shown) . Output its pIC50 only.
*A* 7.00 to 8.00

*Q* Supply recorded pIC50 for COc1cc(NC2=NC(=O)N(C)C3=NCC(c4cc(F)cc(F)c4)N23)c(C)cc1F (stereo not shown) here.
*A* 7.00 to 8.00

*Q* Read the entry COc1ccc(Nc2nc(=O)cc3n2C(c2ccc(F)c(Cl)c2)CC3)c(C)c1 (stereo not shown) and write its reported pIC50.
*A* > 8.00

*Q* Fill in reported pIC50 for this entry: Cc1ccc(CCO)cc1NC1=NC(=O)N(C)C2=NCC(c3cc(F)c(F)c(F)c3)N12 (stereo not shown)
*A* 7.00 to 8.00

*Q* Quickly give me recorded pIC50 for CCOc1ccc(/N=c2\[nH]c(=O)c(F)c3n2C(c2ccc(F)cc2F)CC3)c(C)n1 (stereo not shown)
*A* 7.00 to 8.00

*Q* Please give measured pIC50 of the following entry: COc1cc(Nc2nc(=O)c(OC)c3n2C(c2ccccc2)CC3)c(C)cc1Cl (stereo not shown)
*A* 7.00 to 8.00

*Q* Consider the compound Cc1cc(OC(F)F)ccc1/N=c1\[nH]c(=O)c(F)c2n1C(c1ccc(F)cc1F)CC2 (stereo not shown) and give its recorded pIC50.
*A* 7.00 to 8.00

*Q* Tell us which pIC50 value is on record for COc1ccc(Nc2nc(=O)cc3n2C(c2ccccc2)CN3C)c(C)c1 (stereo not shown) [Compound I-0104]
*A* 7.00 to 8.00

*Q* Write down pIC50 measured for item CCOc1nc(C)c(Nc2nc(=O)c(F)c3n2C(c2ccc(F)cc2F)CC3)cc1F (stereo not shown)
*A* 7.00 to 8.00

*Q* Identify measured pIC50 associated with Cc1nc2cc(C)c(Nc3nc(=O)cc4n3C(c3ccc(F)cc3)CC4)cc2s1 (stereo not shown)
*A* > 8.00

---

tested.system: human PXR (Homo sapiens (Human), UniProt O75469)
Sequence (O75469 whole entry): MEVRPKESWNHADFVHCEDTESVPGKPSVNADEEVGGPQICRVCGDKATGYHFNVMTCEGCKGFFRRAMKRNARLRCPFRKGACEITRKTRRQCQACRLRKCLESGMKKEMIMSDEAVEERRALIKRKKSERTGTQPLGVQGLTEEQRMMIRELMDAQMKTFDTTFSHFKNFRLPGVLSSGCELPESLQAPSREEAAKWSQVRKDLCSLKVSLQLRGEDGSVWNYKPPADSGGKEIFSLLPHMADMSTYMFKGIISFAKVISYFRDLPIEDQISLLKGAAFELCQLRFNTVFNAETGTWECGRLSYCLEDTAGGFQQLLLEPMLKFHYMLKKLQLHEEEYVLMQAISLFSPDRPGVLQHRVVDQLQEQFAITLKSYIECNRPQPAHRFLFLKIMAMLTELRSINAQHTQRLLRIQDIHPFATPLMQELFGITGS
procedure.summary: Evaluation of activation of human pregnane X receptor (PXR), DPX2 cells
Assay type: cell-based
assay.conditions: compound 50 μM, 48 hours, emission intensity divided by fluorescence intensity
measured.parameter: PXR 50 μM
Just the number.

*Q* Report PXR 50 μM, nothing else, for this compound: Cc1cc(F)c(CO)cc1NC1=NC(=O)N(C)C2=NCC(c3cc(F)c(F)c(F)c3)N12 (centres unmarked)
*A* 1.7

*Q* Give reported PXR 50 μM value for COc1ccc(C)c(NC2=NC(=O)N(C)C3=NCC(c4cc(F)c(F)c(F)c4)N23)c1 (centres unmarked)
*A* 13

*Q* Output measured PXR 50 μM for this item: Cc1ccc(OC(F)F)cc1NC1=NC(=O)N(C)C2=NCC(c3cc(F)c(F)c(F)c3)N12 (centres unmarked)
*A* 15

*Q* Consider the compound CCc1ccc(CO)cc1NC1=NC(=O)N(C)C2=NCC(c3cc(F)c(F)c(F)c3)N12 (centres unmarked) and give its recorded PXR 50 μM.
*A* 2

*Q* Please indicate PXR 50 μM recorded for COCc1ccc(C)c(NC2=NC(=O)N(C)C3=NCC(c4cc(F)c(F)c(F)c4)N23)c1 (centres unmarked)
*A* 13.5

*Q* Note down PXR 50 μM recorded for Cc1ccc(C#N)cc1NC1=NC(=O)N(C)C2=NCC(c3cc(F)c(F)c(F)c3)N12 (centres unmarked)
*A* 6.2

*Q* Give the reported value of PXR 50 μM for this record: COCCOc1ccc(C)c(NC2=NC(=O)N(C)C3=NCC(c4cc(F)c(F)c(F)c4)N23)c1 (centres unmarked)
*A* 4.7

*Q* Provide one value: measured PXR 50 μM of COc1nc(C)c(NC2=NC(=O)N(C)C3=NCC(c4cc(F)c(F)c(F)c4)N23)cc1F (centres unmarked)
*A* 20

*Q* Provide one value: measured PXR 50 μM of Cc1ccc(OCCO)cc1NC1=NC(=O)N(C)C2=NCC(c3cc(F)c(F)c(F)c3)N12 (centres unmarked)
*A* 2.5

*Q* For the compound Cc1cc2c(cc1NC1=NC(=O)N(C)C3=NCC(c4cc(F)c(F)c(F)c4)N13)COC2 (centres unmarked) , give its reported PXR 50 μM.
*A* 25

*Q* Give the reported PXR 50 μM for this compound. COc1ccc(NC2=NC(=O)N(C)C3=NCC(c4cc(F)c(F)c(F)c4)N23)c(C)c1 (centres unmarked)
*A* 9

*Q* Name the recorded PXR 50 μM of the compound listed here: CCc1nc(OC)ccc1NC1=NC(=O)N(C)C2=NCC(c3cc(F)c(F)c(F)c3)N12 (centres unmarked)
*A* 15.8

*Q* Identify the reported PXR 50 μM for the following entry. CN1C(=O)N=C(NCc2ccccc2)N2C1=NCC2c1cc(F)c(F)c(F)c1 (centres unmarked)
*A* 3.5

*Q* Look up PXR 50 μM of Cc1ccc(CO)cc1NC1=NC(=O)N(C)C2=NCC(c3cc(F)c(F)c(F)c3)N12 (centres unmarked) and report it.
*A* 2.5
